# MEASURED ON: Voltage-dependent T-type calcium channel subunit alpha-1H (Homo sapiens) (UniProt O95180)
# Sequence (O95180 whole entry, looked up): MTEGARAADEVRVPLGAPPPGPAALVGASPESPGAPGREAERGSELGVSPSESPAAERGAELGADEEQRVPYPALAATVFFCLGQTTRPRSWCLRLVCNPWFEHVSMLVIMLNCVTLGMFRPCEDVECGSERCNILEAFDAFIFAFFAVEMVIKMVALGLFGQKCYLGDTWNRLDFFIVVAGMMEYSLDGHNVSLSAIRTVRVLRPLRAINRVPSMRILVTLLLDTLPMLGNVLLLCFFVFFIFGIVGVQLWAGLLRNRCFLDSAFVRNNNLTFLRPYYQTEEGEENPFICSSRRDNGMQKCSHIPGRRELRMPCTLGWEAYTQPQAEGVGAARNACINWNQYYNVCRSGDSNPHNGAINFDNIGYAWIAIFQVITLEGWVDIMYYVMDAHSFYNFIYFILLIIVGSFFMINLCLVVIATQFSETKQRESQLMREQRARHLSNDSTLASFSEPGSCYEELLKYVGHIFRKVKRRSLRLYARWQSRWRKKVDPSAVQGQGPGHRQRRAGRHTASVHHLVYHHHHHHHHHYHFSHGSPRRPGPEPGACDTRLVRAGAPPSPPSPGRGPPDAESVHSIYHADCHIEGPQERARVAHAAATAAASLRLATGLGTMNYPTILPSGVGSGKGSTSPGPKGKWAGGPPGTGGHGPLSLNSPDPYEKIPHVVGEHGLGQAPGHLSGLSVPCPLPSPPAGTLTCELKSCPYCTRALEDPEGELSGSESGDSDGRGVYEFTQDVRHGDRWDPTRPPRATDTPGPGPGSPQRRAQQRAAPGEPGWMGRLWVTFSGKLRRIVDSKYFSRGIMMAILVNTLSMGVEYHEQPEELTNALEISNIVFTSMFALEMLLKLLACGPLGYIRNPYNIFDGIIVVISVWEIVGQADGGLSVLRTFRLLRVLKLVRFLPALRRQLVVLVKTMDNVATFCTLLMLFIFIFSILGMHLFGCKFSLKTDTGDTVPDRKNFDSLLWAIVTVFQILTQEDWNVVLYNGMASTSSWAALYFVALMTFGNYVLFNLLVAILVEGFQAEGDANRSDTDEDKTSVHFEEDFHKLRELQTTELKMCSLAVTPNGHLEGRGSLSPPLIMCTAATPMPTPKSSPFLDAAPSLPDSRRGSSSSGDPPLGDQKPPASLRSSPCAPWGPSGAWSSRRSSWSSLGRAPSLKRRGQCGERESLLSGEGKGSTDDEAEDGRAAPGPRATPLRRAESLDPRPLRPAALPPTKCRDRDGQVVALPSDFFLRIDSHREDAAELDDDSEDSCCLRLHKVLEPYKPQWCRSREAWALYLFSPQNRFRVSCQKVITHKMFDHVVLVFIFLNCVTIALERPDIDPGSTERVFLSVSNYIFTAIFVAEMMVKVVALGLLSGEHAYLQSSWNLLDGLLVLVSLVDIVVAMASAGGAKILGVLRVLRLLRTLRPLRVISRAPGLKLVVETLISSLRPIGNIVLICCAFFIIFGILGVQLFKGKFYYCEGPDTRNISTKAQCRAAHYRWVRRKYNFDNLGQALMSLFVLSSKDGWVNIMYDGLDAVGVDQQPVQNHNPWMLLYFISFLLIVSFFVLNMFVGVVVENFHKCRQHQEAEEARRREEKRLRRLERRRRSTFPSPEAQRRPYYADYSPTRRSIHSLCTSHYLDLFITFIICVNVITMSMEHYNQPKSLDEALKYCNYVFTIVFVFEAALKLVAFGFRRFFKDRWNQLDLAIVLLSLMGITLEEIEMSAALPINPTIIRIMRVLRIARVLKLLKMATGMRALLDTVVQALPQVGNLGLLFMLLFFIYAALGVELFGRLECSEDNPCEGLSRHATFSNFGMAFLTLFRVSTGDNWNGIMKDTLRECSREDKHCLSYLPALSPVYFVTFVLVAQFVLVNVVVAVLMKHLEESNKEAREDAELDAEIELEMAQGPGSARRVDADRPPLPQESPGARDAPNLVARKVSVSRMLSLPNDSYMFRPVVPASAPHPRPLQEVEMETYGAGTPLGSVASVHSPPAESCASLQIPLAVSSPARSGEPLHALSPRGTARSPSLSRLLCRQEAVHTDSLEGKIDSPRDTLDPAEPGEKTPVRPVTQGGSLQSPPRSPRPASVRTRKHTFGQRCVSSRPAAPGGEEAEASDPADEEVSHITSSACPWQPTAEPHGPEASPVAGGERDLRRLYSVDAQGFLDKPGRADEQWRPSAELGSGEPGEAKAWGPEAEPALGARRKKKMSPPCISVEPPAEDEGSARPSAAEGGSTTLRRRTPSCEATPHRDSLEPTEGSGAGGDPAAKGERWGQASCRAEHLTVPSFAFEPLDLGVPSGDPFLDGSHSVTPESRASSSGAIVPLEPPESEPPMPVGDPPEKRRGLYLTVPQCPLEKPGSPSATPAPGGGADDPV
# METHOD: Cav3.2 calcium influx blockers – cell-based, Fluo-4 calcium fluorescence, FDSS, MLSMR library, primary screen (AID 449739)
# CONDITION SUMMARY: Cav3.2-expressing cells, at 10 µM, active compounds read low
The whole screen tested about 100,000 compounds, of which about 4,200 (4.2%) were called active. The list comes from a sample in which actives are over-represented; it also holds close analogues and randomly drawn compounds.
REPORTED ENDPOINT: B-score
Hey, just send me the number, nothing else.

Asked: Which B-score is listed for `CCOC(=O)c1ccc(NC(=O)c2nc[nH]c2C(=O)NCc2ccccc2)cc1` ?
Given back: -0.706

Asked: Which B-score is listed for `O=C(O)C1=C[C@H](c2cccs2)C[C@H](OCCCCO)O1` ?
Given back: 0.408

Asked: Which B-score is listed for `Cc1cnc(NC(=O)CSc2nnc(-c3ccccc3)n2Cc2ccccc2)s1` ?
Given back: -2.37

Asked: Which B-score is listed for `NC1=NC[C@@H](Cc2ccc(O)cc2)N1CC1CCCCC1` ?
Given back: 0.0175

Asked: Which B-score is listed for `CCOc1cc(/C=C2/N=C(c3ccc(C(C)(C)C)cc3)OC2=O)cc(Cl)c1OS(C)(=O)=O` ?
Given back: -1.04

Asked: Which B-score is listed for CCOC(=O)CSC1=C(C#N)C(c2ccco2)C(C(=O)OCc2ccccc2)=C(C)N1 (stereo not drawn) ?
Given back: -3.01

Asked: Which B-score is listed for `CCOC(=O)c1ccccc1NC(=O)c1c(N)n(C)c(=O)[nH]c1=O` ?
Given back: 1.01

Asked: Which B-score is listed for `O=C(/C=C/c1ccccc1)N/C(=C/c1ccccc1)C(=O)Nc1ccccc1O` ?
Given back: -8.64

Asked: Which B-score is listed for `O=C(Cc1ccc2c(c1)CCCC2)Nc1ccccc1Cl` ?
Given back: -0.144

Asked: Which B-score is listed for CC(C)(C)NCC(O)COc1cccc2[nH]c(=O)[nH]c12 (stereo not drawn) ?
Given back: 2.63

Asked: Which B-score is listed for `COC(=O)c1c(-c2ccsc2)oc2ccc(-c3cc(OC)c(OC)c(OC)c3)cc12` ?
Given back: -0.846

Asked: Which B-score is listed for `N/C(=N\OC(=O)CCC1CCCCC1)c1ccccn1` ?
Given back: 0.693

Asked: Which B-score is listed for `O=C1c2ccccc2S(=O)(=O)c2cc(N3CCN(c4ccccn4)CC3)ccc21` ?
Given back: 0.804
